# target-system: T1, human CLDN18.2 (human)
# T1 construct: over-expressed on HEK293T or OCUM-1 cells by lentivirus; KATO-III and NUGC4 gastric cancer cells express it naturally; also called hCLDN18.2; hCLDNA18.2
# procedure-text: imaging cytometry (% fluorescent cells), OCUM1-hCLDN18.2 cells
Label satisfied when EC50 is strictly below 0.1 mg/L; otherwise label not satisfied.

[[record]]
binder = "27B5 (antibody, V domains shown, murine monoclonal antibody purified from hybridoma culture supernatant) VH: QVQLQQPGTELVKPGASVKLSCKASGYTFTSYWMHWVKQRPGQGLEWIGNIHPSNGGSNHNEKFKSKATLTVDKSSSTAYMQLSSLTSEDSAVYYCAPIYYGNSLAYWGHGTLVTVSA VL: DVVMTQSPSSLTVTAGEKVTMSCKSSQSLLNSGNQKNYLTWYQQKPGQPPKLLLYWASTRESGVPDRFTGSGSGTDFTLTISSVQAEDLAVYYCQNSYFYPFTFGSGTKLEIK"
group = "not satisfied"

[[record]]
binder = "37B1 (antibody, V domains shown, murine monoclonal antibody purified from hybridoma culture supernatant) VH: EVRLQQSGPELVKPGASVKMSCKASGYSFTDYNMHWVKQSHGKSPEWVGYINPNKGGTGYNQKFKGKATLTVNKSSSTANMELRSLTSEDSAVYYCARIWYGNSFAYWGQGTLVTVSA VL: DVVMTQSPSSLTVTAGEKVTMSCKSSQSLLNSGNQKNYLTWYQQKPGQPPKLLIYWASTRESGVPDRFTGSGSGTDFTLTISSVQAEDLAVYFCQNDYFYPFTFGSGTKLEIK"
group = "not satisfied"

[[record]]
binder = "10B11 (antibody, V domains shown, murine monoclonal antibody purified from hybridoma culture supernatant) VH: QVQMKESGAELVKPGASVKISCKASGYAFSTYWMDWVKQRPGKGLEWIGQIYPGNGDTNYNGKFKGKATLTADKSSSTADMQLSSLTSEDSAVYFCARLGYGNSFTYWGQGTLVTVSA VL: DIQVTQSPSSLTVTAGEKVTMSCKSSQSLLNSGNQKNYLTWYQQKPGQPPKLLIYWASTRESGVPDRFTGSGFGTDFTLTISSVQAEDLAVYYCQNAYFYPFTFGSGTKLEIK"
group = "not satisfied"

[[record]]
binder = "44F7 (antibody, V domains shown, murine monoclonal antibody purified from hybridoma culture supernatant) VH: QVQLQQSGAELVRPGASVKMSCKASGYTFTSYNMHWVKQAPRQGLEWIGTIYPGNGDTSYNQKFKGKATLTVDKSSSTAYMQLSSLTSEDSAVYFCARGGYYGNSLDYWGQGTTLTVSS VL: DIQMTQSPSSLTVTAGEKVTMSCKSSQSLLNSGNQKNYLTWYQQKPGQPPKLLIYWASTRESGVPDRFTGSGSGTDFTLTISSVQAEDLAVYYCQNAYYYPFTFGSGTKLEIK"
group = "satisfied"

[[record]]
binder = "9F3 (antibody, V domains shown, murine monoclonal antibody purified from hybridoma culture supernatant) VH: EVRLQQSGPELVKPGASVKIPCKASGYKFTDYNMDWVKQSHGKSLEWIGEINPNNGGTIYNQKFKGKATLTVDKSSSTAYMELRSLTSEDTAVYYCARIYYGNSFAYWGQGTLVTVSS VL: DIVMTQSPSSLTVTAGEKVTMSCKSSQSLLNSGNLKNYLTWYQQKPGQPPKLLIYWASTRESGVPDRFTGSGSGTDFTLTISSVQAEDLAVYYCQNDYFYPLTFGAGTKLEIK"
group = "not satisfied"

